EXPERIMENTAL_TARGET: human prostanoid DP1 receptor (Homo sapiens)
Construct: expressed in transfected cells
Sequence (Q13258 whole entry): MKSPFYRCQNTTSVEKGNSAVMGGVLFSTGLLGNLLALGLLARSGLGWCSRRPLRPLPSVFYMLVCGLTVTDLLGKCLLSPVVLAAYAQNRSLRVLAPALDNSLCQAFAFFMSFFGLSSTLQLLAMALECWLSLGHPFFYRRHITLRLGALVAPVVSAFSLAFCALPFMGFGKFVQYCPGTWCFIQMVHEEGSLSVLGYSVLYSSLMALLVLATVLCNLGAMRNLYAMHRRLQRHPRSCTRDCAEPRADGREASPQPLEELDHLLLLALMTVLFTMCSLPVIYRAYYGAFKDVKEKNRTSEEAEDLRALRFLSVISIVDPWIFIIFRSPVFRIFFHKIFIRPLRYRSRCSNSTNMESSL
ASSAY_NAME: PG antagonist activity, Ca2+ signal in human recombinant prostanoid receptor stable cell line
Assay type: cell-based
PARTICULARS: parameter and unit not given
OBSERVED_PROPERTY: DP (PG antagonist activity)

CCCCCCCCNC(=O)c1coc(C2C3CCC(O3)C2Cc2cc(F)ccc2CCC(=O)O)n1 (stereo not drawn)
55
O=C(O)CCc1ccc(F)cc1CC1C2CCC(O2)C1c1nc(C(=O)NCCCCC2CCCCC2)co1 (stereo not drawn)
50
CCCCCCCCCNC(=O)c1coc(C2C3CCC(O3)C2Cc2cc(F)ccc2/C=C/C(=O)O)n1 (stereo not drawn)
270

(P) CCCCCCCCCNC(=O)c1coc(C2C3CC[C@@H](O3)[C@@H]2Cc2cc(F)ccc2CCC(=O)O)n1 (stereo partly drawn)
(Q) CCCCCCCCNC(=O)c1coc(C2C3CCC(O3)C2Cc2cc(F)ccc2/C=C/C(=O)O)n1 (stereo not drawn)
(R) O=C(O)/C=C/c1ccc(F)cc1C[C@@H]1C(c2nc(C(=O)NCCCCC3CCCCC3)co2)C2CC[C@H]1O2 (stereo partly drawn)
Ranking field: DP (PG antagonist activity); order: falling. Thanks in advance for listing the labels in the requested order.
Q, R, P
(Q: 220, R: 71, P: 17)

These data points were gathered from patent US8901159B2.
